melting point reference

# count of solved cases: 5
[[record]]
molecule = "Cn1cc(CNC(=O)c2ccnc(N3CCN(Cc4ccc(F)cc4)C3=O)c2)cn1"
result = "165 to 166 °C"

[[record]]
molecule = "O=C(O)CCc1ccnc(-c2nc(=O)c3ccccc3s2)c1"
result = "215 to 216 °C"

[[record]]
molecule = "CC(C)N1CCC(C(C(N)=O)(c2ccccc2)c2ccccc2)C1 (centres undefined)"
result = "110 to 112 °C"

[[record]]
molecule = "CNC(Cc1cc(Br)cc(Br)c1N)c1sccc1C (centres undefined)"
result = "141 to 143 °C"

[[record]]
molecule = "CCCCCc1c(/C=C/C(=O)Oc2ccc([N+](=O)[O-])cc2)sc2cc(OC)ccc12"
result = "111 to 113 °C"


Query: What measured melting point goes with CC(C#N)=NC(C#N)=C(N)C#N ?
Response: 220 to 221 °C

Query: What measured melting point goes with O=C(O)C1C=COc2cc(Cl)c(Cl)cc21 (centres undefined) ?
Response: 114 to 117 °C

Query: What measured melting point goes with COc1cccc(C=O)c1OCc1cccc2ccccc12 ?
Response: 98 to 99 °C

====

melting point reference

Query: What measured melting point goes with CCOC(=O)c1cn(C(C)(C)CO[Si](C)(C)C(C)(C)C)c2cc(Br)ccc2c1=O ?
Response: 133 °C

Query: What measured melting point goes with O=C(O)COc1cccc(CCc2nc(-c3ccccc3)c(-c3ccccc3)o2)c1 ?
Response: 153 to 154 °C

Query: What measured melting point goes with O=C1Nc2cc(F)c(F)cc2N2CCN(C(=O)OCc3ccccc3)CC12 (stereo unspecified) ?
Response: 226 to 228 °C

Query: What measured melting point goes with CCc1cccc(C=CC(=O)CCCc2ccccc2)c1NC(=O)CC1c2ccccc2Oc2ccccc21 ?
Response: 168 to 170 °C

Query: What measured melting point goes with CS(=O)(=O)c1ccc(-c2cccn2-c2ccc(F)c(F)c2)cc1 ?
Response: 137 to 139 °C

Query: What measured melting point goes with CN(C)c1ccccc1CS(=O)(=O)c1nccn1-c1ccncc1 ?
Response: 132 to 135 °C

====

ENDPOINT: melting point

# count of solved cases: 2
[[record]]
molecule = "O=C1Nc2ccc(F)c(F)c2C(=O)N2CC[C@@H]12"
endpoint = "melting point"
result = "> 250 °C"

[[record]]
molecule = "CCCCC(=O)Nc1ccc2c(c1)C(=O)OC2CCCC (stereo not drawn)"
endpoint = "melting point"
result = "137 to 139 °C"


Query: What measured melting point goes with COCCOC(=O)c1cnn2c(-c3cccc(C(F)(F)F)c3)ccnc12 ?
Response: 111 to 112 °C

Query: What measured melting point goes with CCCc1cc(O)nc(SC)n1 ?
Response: 158 °C

Query: What measured melting point goes with Cc1noc(NC(=O)N2CCN(c3cncc(-c4ccc(F)cc4F)c3)CC2)c1C ?
Response: 147 to 148 °C

====

melting point reference

# count of solved cases: 8
[[record]]
compound = "Cc1cc(Br)c(S(C)(=O)=O)cc1C(=O)N=C(N)N"
endpoint = "melting point"
result = "207 to 208 °C"

[[record]]
compound = "O=C1C=CCC2=C3C(=CCN3C13COc1cc4c(cc13)OCO4)CCC2 (centres undefined)"
endpoint = "melting point"
result = "176 to 177 °C"

[[record]]
compound = "COC(=O)C1N2C(=O)C(NC(=O)COc3ccccc3)C2SCC1(C)Nc1ccccc1 (centres undefined)"
endpoint = "melting point"
result = "129 to 130 °C"

[[record]]
compound = "COC(=O)c1c(C(F)F)nc(C(F)(F)F)c(C2CC(C)N(O)C2)c1CC1CC1 (centres undefined)"
endpoint = "melting point"
result = "142 to 144 °C"

[[record]]
compound = "CCOC(=O)NN=Cc1c[nH]c(C(C)(C)C)n1"
endpoint = "melting point"
result = "194 to 197 °C"

[[record]]
compound = "NC(=O)c1sc2ncnc(-c3cccc(NC(=O)Cc4ccccc4)c3)c2c1N"
endpoint = "melting point"
result = "255 to 258 °C"

[[record]]
compound = "COC(=O)COc1ccc(C(C)CNS(=O)(=O)c2ccccc2)cc1F (centres undefined)"
endpoint = "melting point"
result = "112 to 113 °C"

[[record]]
compound = "FC(F)(F)c1cccc(CSc2nnc(-c3ccc4c(c3)CCO4)o2)c1"
endpoint = "melting point"
result = "88 to 90 °C"


Query: What measured melting point goes with CC(O)=C1C(=O)CC(c2ccccc2Cl)CC1=O (centres undefined) ?
Response: 100 to 101 °C

Query: What measured melting point goes with O=C(NC(CO)c1ccc(-c2ccc(SC(F)F)cc2)cc1)c1c(F)cccc1F (centres undefined) ?
Response: 156 to 157 °C

Query: What measured melting point goes with C=CCC1C(=NO)C2CCC1CC2 (centres undefined) ?
Response: 124 to 125 °C

Query: What measured melting point goes with CN(C)C1CCN(c2nc(N3CCc4ccccc4C3)c3ncnc(N4CCOCC4)c3n2)CC1 ?
Response: 49 to 53 °C

Query: What measured melting point goes with O=CNCS(=O)(=O)c1ccc2ccccc2c1 ?
Response: 139 to 141 °C

Query: What measured melting point goes with O=S(=O)(NC(Cc1ccc(O)cc1)c1ccccc1)c1ccc(Cl)cc1 (centres undefined) ?
Response: 174 to 178 °C

====

ENDPOINT: melting point

[[record]]
compound = "CNC(=O)[C@@H]1CCC[C@@H]1Nc1nc(Nc2ccc3c(c2)CCN(CCOC)CC3)ncc1Cl (relative stereo)"
result = "176 °C"

[[record]]
compound = "O=C1N(Cc2ccc(O)cc2)c2ccccc2C12COc1cc3c(cc12)CCO3 (stereo not drawn)"
result = "226 to 227 °C"

[[record]]
compound = "COc1cc(C2CCN(C[C@@H](C)O)CC2)ccc1Nc1ncc2ccc(-c3ccccc3N(C)S(C)(=O)=O)n2n1"
result = "91 to 103 °C"

[[record]]
compound = "COC(=O)C[C@H](O)C[C@H](O)CCc1c(-c2ccc(F)cc2)c(-c2ccccc2)c(C(=O)Nc2cccc(S(N)(=O)=O)c2)n1C(C)C"
result = "80 to 81 °C"


Query: What measured melting point goes with OC1(c2ccc(Cl)cc2)CCN(CCCc2nnc3n2CCCCC3)CC1 ?
Response: 163 °C

Query: What measured melting point goes with OC1Cn2ccnc2C(=C2CCN(CCc3ccc(OCc4ccc5ccccc5n4)cc3)CC2)c2ccsc21 (stereo not drawn) ?
Response: 242 °C

Query: What measured melting point goes with O=c1c(N2CCN(c3ccncc3)CC2)cn(Cc2ccccc2)c2cc(O)ccc12 ?
Response: 141 to 146 °C

Query: What measured melting point goes with CC(C)(Cc1nc2c(N)nc3ccccc3c2s1)OC(N)=O ?
Response: 222 to 223 °C

Query: What measured melting point goes with NS(=O)(=O)c1cc2[nH]ccc2cc1F ?
Response: 181 to 182 °C

====

melting point reference

[[record]]
line_notation = "CN1CCC(Nc2cccc(NC(=O)OC(C)(C)C)c2)CC1"
endpoint = "melting point"
result = "124 to 125 °C"

[[record]]
line_notation = "COc1ccc(N=C2SC(=CC(=O)O)C(=O)N2c2ccc(OC)cc2)cc1"
endpoint = "melting point"
result = "184 to 187 °C"


API: the following record is the query input.
Query: What measured melting point goes with O=C(CP(=O)(O)O)NC12CC3CC(CC(C3)C1)C2 ?
Response: 190 to 194 °C

====

ENDPOINT: melting point

# count of solved cases: 3
[[record]]
compound = "CCCCCCCCCCCCCCOc1ccc(N(CC(=O)O)CC(=O)O)cc1OCCCCCCCCCCCCCC"
result = "89 to 93 °C"

[[record]]
compound = "CCn1c2ccccc2c2cc(C(C#N)=C(C#N)c3cc(C(F)(F)F)cc(C(F)(F)F)c3)ccc21"
result = "180 to 182 °C"

[[record]]
compound = "CCN(CC)CCOCCc1ccc2c(c1)OCO2"
result = "83 to 84 °C"


Query: What measured melting point goes with COc1ccc(-c2nc(Sc3ccc(C(C)(C)C)cc3)[nH]c2-c2ccc(OC)cc2)cc1 ?
Response: 172 to 174 °C

Query: What measured melting point goes with CCN(CCCCc1coc2ccccc12)C[C@H]1COc2ccc3nc(C)ccc3c2O1 ?
Response: 87 to 92 °C

====

ENDPOINT: melting point

# count of solved cases: 8
[[record]]
compound = "CN(C(=O)OCC(Cl)(Cl)Cl)C1CN(C(=O)Nc2ccc(C(F)(F)F)cc2)N=C1c1ccc(Cl)cc1 (configuration not stated)"
endpoint = "melting point"
result = "169 to 170 °C"

[[record]]
compound = "NCC1(CC(=O)O)CCCCCC1"
endpoint = "melting point"
result = "180 °C"

[[record]]
compound = "COc1ccccc1C(=O)OC(=C1C(=O)N(C(N)=O)c2cc(Cl)c(F)cc21)c1cccs1"
endpoint = "melting point"
result = "219 to 221 °C"

[[record]]
compound = "Cc1nnc2n1-c1sc(C(C)OC(=O)C=Cc3ccccc3)cc1C(c1ccccc1Cl)=NC2 (configuration not stated)"
endpoint = "melting point"
result = "122 to 125 °C"

[[record]]
compound = "CCCCc1nc(C#N)c(C#N)n1Cc1ccc(N)cc1"
endpoint = "melting point"
result = "99 to 104 °C"

[[record]]
compound = "CCCc1c(C(=O)C(C)C)c2ccc(C(N)=O)cc2n1Cc1ccccc1NC(C)=O"
endpoint = "melting point"
result = "235 to 236 °C"

[[record]]
compound = "O=[N+]([O-])c1cn2c(n1)OC[C@@H](OCc1cnc(Cl)cn1)C2"
endpoint = "melting point"
result = "181 to 183 °C"

[[record]]
compound = "COc1nc(C)n2nc(S(=O)(=O)Nc3c(Cl)cccc3Cl)nc2c1Cl"
endpoint = "melting point"
result = "255 to 256 °C"


Query: What measured melting point goes with O=C(Nc1ccc(OC(F)(F)F)cc1)NC1CCN(S(=O)(=O)c2ccccc2)CC1 ?
Response: 188 to 189 °C

Query: What measured melting point goes with O=C(NCc1ccccn1)c1[nH]c2ccc(Cl)cc2c1S(=O)(=O)c1ccccc1 ?
Response: 250 to 251 °C

Query: What measured melting point goes with Cn1c(-c2nnc(N)s2)cnc1[N+](=O)[O-] ?
Response: 263 to 265 °C

Query: What measured melting point goes with CC(C)(C)Nc1nc(NC(C)(C)C)nc(N2CC3CCC(CC3)C2)n1 ?
Response: 217 to 222 °C

Query: What measured melting point goes with Cc1nn(-c2cncc(F)c2)cc1N ?
Response: 136 to 138 °C

Query: What measured melting point goes with CCC(C(C)=CC(CNC(=O)c1ccc2c(c1)CC(=O)N2)=NO)[N+](=O)[O-] (configuration not stated) ?
Response: 111 to 114 °C

Query: What measured melting point goes with COc1c(Cl)ccc(Cl)c1C(=O)NO ?
Response: 150 °C

Query: What measured melting point goes with CCOC(=O)c1cn2c3c(cc(C)cc3c1=O)C1CCCCC12 (configuration not stated) ?
Response: 107 to 109 °C

Query: What measured melting point goes with N#Cc1c(N2CCN(C(=O)c3cccs3)CC2)c2ccccc2n(-c2ccccc2)c1=O ?
Response: 289 °C
